Data origin: the supplement of paper PMC9170038

# Test system: MS2 coat protein
# Procedure Text: apparent KD of MS2 coat protein; designed switch direction (-1 OFF switch, 1 ON switch): -1; higher = weaker reporter binding
# Measurement Conditions: input ligand: none
Quantity: apparent KD of MS2 coat protein (nM)
State the answer as a number, implicitly in nM.

### Prompt Which apparent KD of MS2 coat protein is listed for CUAAUUCAAGGAUAUACAUGAGGAUCACCCAUGUGAGGGAGUGACAAGUUGUCGGGAUGUAGAAGGUGACCUAG [Eternabot (L2) Solution 36] (Eterna round: R97, puzzle: Exclusion 3) ?
### Response 411

### Prompt Which apparent KD of MS2 coat protein is listed for CGUCUGUAAGGAUAUGGUUGCAUCAACAUGAGGAUCACCCAUGUAACAUGGGACUAGUGAUUAGAAGGUACGAACG [EX5 #58] (Eterna round: R97, puzzle: Exclusion 5) ?
### Response 142

### Prompt Which apparent KD of MS2 coat protein is listed for GCGCCAUCGUGAGAUGGCGUAACUACAUGAGGAUCACCCAUGUAGGAUAUCGAUUGCUUUGCAGUCGAGAAGGGCAAGGGAUUU [JL ENG3 3.88] (Eterna round: R96, puzzle: Exclusion NG 3) ?
### Response 20.4

### Prompt Which apparent KD of MS2 coat protein is listed for ACCUCACAUGAGGAUCACCCAUGUCAGGAUAUCUAAUGUAGUCGCGUUCCCGACGCUAAGAGAAGGGACGUUAA [EX1 #35] (Eterna round: R97, puzzle: Exclusion 1) ?
### Response 16.1

### Prompt Which apparent KD of MS2 coat protein is listed for UAAUAUCUGCAGGAUAUCGGUGGAGCACACGUAUGAGAAGGGCAGACAUGAGGAUCACCCAUGUAUAGGGUCCG [BotMod 3 - Jieux - Exclusion 6] (Eterna round: R97, puzzle: Exclusion 6) ?
### Response 37.7

* * *

# Test system: MS2 coat protein
# Procedure Text: apparent KD of MS2 coat protein; designed switch direction (-1 OFF switch, 1 ON switch): 1; higher = weaker reporter binding
# Measurement Conditions: input ligand: microRNA oligo, concentration not stated
Quantity: apparent KD of MS2 coat protein

### Prompt Which apparent KD of MS2 coat protein is listed for CGCCAGAGAGCAGGAUAUGGGCCACGGCCUAAGGGCUGUGGACUCACAUGAGGAUCACCCAUGUCCCAGAAGGGCUCCUGGCUA [Usarbebi] (Eterna round: R96, puzzle: Same State NG 2) ?
### Response 128 nM

### Prompt Which apparent KD of MS2 coat protein is listed for UUUCUCAUGUAAGGAUAUGCAGCCGUUUCGGCUGCAGAAGGUACUAUAAUACAUGAGGAUCACCCAUGUCUCUAUUAUUUAGUU [JL SSNG1 1.44] (Eterna round: R96, puzzle: Same State NG 1) ?
### Response 39.9 nM

### Prompt Which apparent KD of MS2 coat protein is listed for AUAGUUGCUGAAGGAUAUGAUGAGGAUCACCCAUCAGAAGGUUGGCUAUUGGGUGGACAUGAGGAUCACCCGUGUUCUUUGGUA (Eterna round: R96, puzzle: Same State NG 1) ?
### Response 59.1 nM

### Prompt Which apparent KD of MS2 coat protein is listed for GGCUGCGUUGUGAAGGAUAUCCGCGUCUGGACAUGAGGAUCACCCAUGUAUGCUUGGAUCAUGCCGGAGAAGGUCACGAAUGAUU [JR_SS002_Sub1214] (Eterna round: R96, puzzle: Same State 2) ?
### Response 19.9 nM

### Prompt Which apparent KD of MS2 coat protein is listed for CGGGUGAUCGUAGGAUAUCUAGGAUAUGAACGAGGAUCACCCGAGCAGCAUCAGCGCAUCAGAGGAGAGAAGGACGAUCAUGCG [pwkr ssNG2 2F5 2FMN.7] (Eterna round: R96, puzzle: Same State NG 2) ?
### Response 12.9 nM

* * *

# Test system: MS2 coat protein
# Procedure Text: apparent KD of MS2 coat protein, switch OFF state (with FMN for OFF switches, without FMN for ON switches); designed switch direction (-1 OFF switch, 1 ON switch): -1; higher = weaker reporter binding
# Measurement Conditions: FMN input: 0 or 200 uM; Eterna round: R93 (includes R88 designs)
Quantity: apparent KD of MS2 coat protein (nM)
State the answer as a number, implicitly in nM.

### Prompt Record lookup: for MS2 coat protein, what apparent KD of MS2 coat protein belongs to GCAGGCCAAGGAUAUACAUGAGGAUCACCCAUGUGAGAGAAAAAAGUGAGAAAGAAAAGUAGAAGGUGGUUUGG [salish99-ex3-113] ?
### Response 114

### Prompt Record lookup: for MS2 coat protein, what apparent KD of MS2 coat protein belongs to GUCAGCUGAGGAUAUACAGGUGAUGCCGCAUAACAAAAUAUACAUGAGGAUCACCCAUGUAGAAGGCGGAAGAC [Zalaa] ?
### Response 20.2

### Prompt Record lookup: for MS2 coat protein, what apparent KD of MS2 coat protein belongs to AAAAAACAUGAGGAUCACCCAUGUAAGGAUAUGCUAAAAAACACGGAAAAACGUGAUAGCAGAAGGUACAAAAG [Mat - Exclusion 1 - Eli mod - D87] ?
### Response 31.2

### Prompt Record lookup: for MS2 coat protein, what apparent KD of MS2 coat protein belongs to AAGAACGAAGGAUAUACAAAAUAAAAGAAAAGAAAGAAAGAACAUGAGGAUCACCCAUGUAGAAGGUCGAAGAA [Awybre Hor I] ?
### Response 25.8

### Prompt Record lookup: for MS2 coat protein, what apparent KD of MS2 coat protein belongs to AAAAAGCGAGGAUAUACAUGAGGAUCACCCAUGUGAAAGUCGAAAAAAAAGACAAAAAGUAGAAGGCGCAAAAA [Banishment 7 - Jieux - Exclusion 3] ?
### Response 22.8

### Prompt Record lookup: for MS2 coat protein, what apparent KD of MS2 coat protein belongs to AAGAAGGAAGGAUAUACAUGAGGAUCACCCAUGUAAAAGAAAGAAAGGGAAAAGAAAAGUAGAAGGUCCAAGAA [Aakheperre Setepenre Osorkon] ?
### Response 38.7

### Prompt Record lookup: for MS2 coat protein, what apparent KD of MS2 coat protein belongs to AAAAAACAUGAGGAUCACCCAUGUGAGGAUAUGCGAAAAAAAAAAUAAAAAAAAAAAAGUAGAAGGUACAAAAA [LROPPY Exclusion 1 - v08_deltaG=5.44] ?
### Response 26.9

### Prompt Record lookup: for MS2 coat protein, what apparent KD of MS2 coat protein belongs to AGUUGGCGAGGAUAUACAUGAGGAUCACCCAUGUGAAAGAAAAAAGUGAAAAAGCAAAGUAGAAGGCGCUGACA [73%, Moding Norbert Elias, 5] ?
### Response 192

### Prompt Record lookup: for MS2 coat protein, what apparent KD of MS2 coat protein belongs to AAAAAUUGAGGAUAUACAUGAGGAUCACCCAUGUUAGACCUAAAAAAAGGGAAAGAAAGUAGAAGGCAAUAAAA [Ex 3 May 28] ?
### Response 18.8

### Prompt Record lookup: for MS2 coat protein, what apparent KD of MS2 coat protein belongs to GCAAAGUGAGGAUAUACGCGAACAAAAAUAAAAAAGAAAGCGUAGAAGGCACAUGAGGAUCACCCAUGUCCAGC [Mat - Exaclusion 4 - Eli mod - D77] ?
### Response 30.3

### Prompt Record lookup: for MS2 coat protein, what apparent KD of MS2 coat protein belongs to AUCUUGUCAGGAUAUGACUACAUAAAAAAUAAAAAAUGUAGUCAGAAGGGACAUGAGGAUCACCCAUGUACCAA [Mat - Exclusion 4 - Eli mod - D96] ?
### Response 22.3

### Prompt Record lookup: for MS2 coat protein, what apparent KD of MS2 coat protein belongs to AAGAACAGAGGAUAUACAUGAGGAUCACCCAUGUAAAAGAAAGAAAAGGGAAAGAAAAGUAGAAGGCUGAAGAA [Ankhkheperure Smenkhkare] ?
### Response 42.8

### Prompt Record lookup: for MS2 coat protein, what apparent KD of MS2 coat protein belongs to AAAAUGUCAGGAUAUGUAGCAUGAUACGAAAGUAUCAUGCUACAGAAGGGACAUGAGGAUCACCCAUGUGAUCA [Ex4: 939] ?
### Response 45

### Prompt Record lookup: for MS2 coat protein, what apparent KD of MS2 coat protein belongs to GAAAACAGAGGAUAUACGGGAUUGACACGAAAAGUGCAAAAACAUGAGGAUCACCCAUGUAGAAGGCUGAAGAA [Meechl MS2... 60% 2] ?
### Response 42.5

### Prompt Record lookup: for MS2 coat protein, what apparent KD of MS2 coat protein belongs to CGUCCACAUGAGGAUCACCCAUGUUAGGAUAUCUAUACUAAAUACAAAACCCAAGUCAAGAGAAGGAGCAGGGC [Teteeresve] ?
### Response 12

### Prompt Record lookup: for MS2 coat protein, what apparent KD of MS2 coat protein belongs to AAAAAGUGAGGAUAUACGUUGAAAAAAAAAAAAAAAAAGGCGUAGAAGGCACAUGAGGAUCACCCAUGUAAAAA [Ex4 Malc#5] ?
### Response 77.4

### Prompt Record lookup: for MS2 coat protein, what apparent KD of MS2 coat protein belongs to GGAUGCCAAGGAUAUACAUGAGGAUCACCCAUGUGAGAGAAAAAAGUGAGAAAGAAAAGUAGAAGGUGGUGUCG [salish99-ex3-92] ?
### Response 65.2

### Prompt Record lookup: for MS2 coat protein, what apparent KD of MS2 coat protein belongs to CUCUAGUGAGGAUAUCCAAGAAAAGAAGAGAAAGAAAAGAAGGAGAAGGCACAUGAGGAUCACCCAUGUAAGAA [EteRNA is fun!] ?
### Response 35.8

### Prompt Record lookup: for MS2 coat protein, what apparent KD of MS2 coat protein belongs to AACAGUACAGGAUAUACAUGAGGAUCACCCAUGUGGGUAAAAAGAUCGAGAGAUCCAUGUAGAAGGGUACUGGA [JL In the Red 05] ?
### Response 37.9

### Prompt Record lookup: for MS2 coat protein, what apparent KD of MS2 coat protein belongs to AACGCGUCAGGAUAUAGCAUAAAUUACGUAGUACGACCAUACUAGAAGGGACAUGAGGAUCACCCAUGUGGGUA [JR_Exc004_Sub207] ?
### Response 90.4

### Prompt Record lookup: for MS2 coat protein, what apparent KD of MS2 coat protein belongs to CUCUUGUCAGGAUAUCCAAGAAAAGAAAAGAAAGAAAAGAAGGAGAAGGGACAUGAGGAUCACCCAUGUAAGAA [EteRNA is fun!] ?
### Response 113

### Prompt Record lookup: for MS2 coat protein, what apparent KD of MS2 coat protein belongs to AAGAAGUGAGGAUAUACAAAAUAAAAGAAAAGAAAGAAAGAACAUGAGGAUCACCCAUGUAGAAGGCGCAAGAA [Merhotepre Ini] ?
### Response 24.9

### Prompt Record lookup: for MS2 coat protein, what apparent KD of MS2 coat protein belongs to AGUCGGCGAGGAUAUACAUGAGGAUCACCCAUGUGAGAGAAAAAAGUGAGUUAGACAAGUAGAAGGCGCUGACA [JL Lego Mod 7] ?
### Response 172

### Prompt Record lookup: for MS2 coat protein, what apparent KD of MS2 coat protein belongs to AUAGUACAUGAGGAUCACCCAUGUCAGGAUAUGCGAAACGAAAAAAAAAAAAAGUGAAGUAGAAGGGACUAUAA [EX1 Malc#9] ?
### Response 30.4

### Prompt Record lookup: for MS2 coat protein, what apparent KD of MS2 coat protein belongs to GAAAAACAUGAGGAUCACCCAUGUAAGGAUAUGCUAAAAAACGCAAAAAAAGCGAAUAGCAGAAGGUACAAAAA [Mat - Exclusion 1 - Eli mod - D83] ?
### Response 33.4
